Please respond with reported Cell Binding (FOB) for every item in the list.
Target: T1, human CD39 (cellular) (human, UniProt P49961 1-510)
T1 construct: Same protein on engineered CHO cells and on cells that express it endogenously; also called hCD39; cellular CD39
T1 sequence: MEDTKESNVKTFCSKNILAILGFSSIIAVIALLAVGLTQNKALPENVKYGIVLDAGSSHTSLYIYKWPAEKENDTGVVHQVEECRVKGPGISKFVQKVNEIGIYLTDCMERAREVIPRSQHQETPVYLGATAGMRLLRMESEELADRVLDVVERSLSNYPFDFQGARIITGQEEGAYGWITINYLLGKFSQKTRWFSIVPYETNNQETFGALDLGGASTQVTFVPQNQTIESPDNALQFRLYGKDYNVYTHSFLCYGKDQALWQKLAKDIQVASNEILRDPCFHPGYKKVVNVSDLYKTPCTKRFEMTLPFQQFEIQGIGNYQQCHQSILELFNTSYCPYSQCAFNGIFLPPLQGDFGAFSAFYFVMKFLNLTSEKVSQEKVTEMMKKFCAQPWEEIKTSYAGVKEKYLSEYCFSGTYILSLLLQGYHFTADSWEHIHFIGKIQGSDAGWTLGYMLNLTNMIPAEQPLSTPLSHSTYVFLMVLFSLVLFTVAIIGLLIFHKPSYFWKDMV
Test: flow cytometry, 100 nM IgG, MFI on CHO-hCD39 / MFI on parental CHO;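 further: cells exposed to IgG for 30 min on ice in PBS, bound antibody then revealed with a fluorescent goat anti-human IgG secondary (20 min, on ice)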
Write the value in fold over background as a bare number.

# Cell Binding (FOB) (binder: 31861 (antibody, human IgG4 S228P, kappa, V domains shown) VH: QVQLVQSGAEVKKPGSSVKVSCKASGGTFGSYGISWVRQAPGQGLEWMGSIIPEFGIANYAQKFQGRVTITADESTSTAYMELSSLRSEDTAVYYCARESGTYRDHRLDVWGQGTMVTVSS VL: EIVMTQSPATLSVSPGERATLSCRASQSVGSNLAWYQQKPGQAPRLLIYGASTRATGIPARFSGSGSGTEFTLTISSLQSEDFAVYYCQQYLLWPLTFGGGTKVEIKR ) is 1430

Form field Cell Binding (FOB), entry 27596 (antibody, human IgG4 S228P, kappa, V domains shown) VH: QVQLVQSGAEVKKPGSSVKVSCKASGGTFSSYAISWVRQAPGQGLEWMGGIIPIFGTANYAQKFQGRVTITADESTSTAYMELSSLRSEDTAVYYCARDPLGIRKHWFDPWGQGTLVTVSS VL: EIVMTQSPATLSLSPGERATLSCRASQSVSSYLAWYQQKPGQAPRLLIYDASNRATGIPARFSGSGSGTDFTLTISSLEPEDFAVYYCQQHTVWPITFGGGTKVEIKR : 252

Please fill in: Cell Binding (FOB) reported for 27571 (antibody, V domains shown) VH: QVQLVQSGAEVKKPGSSVKASCKASGGTFSSYAISWVRQAPGQGLEWMGSIIPIFGTANYAQKFRGRVTITADESTSTTYMELSSLRSEDTAVYYCARESGGYRDHRLDVWGQGTMVTVSS VL: EIVMTQSPATLSVSPGERATLSCRASQSVGSNLAWYQQKPGQAPRLLIYGASTRATGIPARFSGSGSGTEFTLTISSLQSEDFAVYYCQQYLIWPLTFGGGTKVEIK = 1400

Hello, the source for this data is patent US20210403593A1, in case you need it.
